Biological target: LAP2, Q96RT1
Sequence (Q96RT1 other isoform, or with tags, fused parts or gaps): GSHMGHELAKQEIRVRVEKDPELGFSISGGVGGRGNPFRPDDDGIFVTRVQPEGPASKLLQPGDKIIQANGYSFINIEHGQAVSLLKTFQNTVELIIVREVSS
Assay: holdup assay
Design: key: below the threshold = too weak to quantify, mostly under pKd 3.1 to 4
Conditions: plain residues with an end cap or a label only (N-terminal biotin on a linker: ttds)
Listed here: items and their measured pKd.
OBSERVED_PROPERTY: pKd

• NDPAWDETNL [ARHGEF7, Q14155;Q14155-1] = 4.46
• RPLPRKVSQL [DOCK4, Q8N1I0] = 3.73
• EVVHTPETSV [SLC16A3, O15427] = 3.81
• SSLQSLETSV [ATP2B4, P23634] = 4.66
• DKDPHSETAL [TMIGD1, Q6UXZ0] = 3.66
• RHTTSTETAV [HPV30-E6, P36809] = 4.46
• FHPLGADSQV [SLC2A1, P11166] = 3.48
• SKPTRRETEV [HPV35-E6, P27228] = 3.69
• RLQRRRETQV [HPV18-E6, P06463] = 3.61
• RLPKIKETTV [FRMPD4, Q14CM0] = 3.87
• PVRVCEETSL [OTULIN, Q96BN8] = 4.18
